# Tested on: total white blood cell (WBC)
# EXPERIMENT: Total white blood cells by complete blood count on day 8, dosing day 1, 3, 5
# Format: in vivo, Swiss-Webster mice
# CONDITION INFO: Mus musculus, 192 h; mice, oral gavage, 20 mg/kg on day 1, day 3 and day 5; measured on day 8; read-out: Total WBC % Increase Over Control
Rule: change in vivo at 20 mg/kg under 20% gives n, otherwise y.

| MOL SMILES | CATEGORY LABEL |
| --- | --- |
| CCCCCCn1cc(Cl)c2c(O)c(C(=O)NCC(=O)O)nc(C#N)c21 | y |

Q: change in vivo at 20 mg/kg >= 20% for N#Cc1nc(C(=O)NCC(=O)O)c(O)c2cc(C(F)(F)F)n(Cc3ccccc3F)c12 ?
Result: y

Q: change in vivo at 20 mg/kg >= 20% for N#Cc1nc(C(=O)NCC(=O)O)c(O)c2cc(Oc3ccccc3)ccc12 ?
Result: y

Q: change in vivo at 20 mg/kg >= 20% for Cc1cccc(Oc2cccc3c(C#N)nc(C(=O)NCC(=O)O)c(O)c23)c1 ?
Result: n

Q: change in vivo at 20 mg/kg >= 20% for O=C(O)CNC(=O)c1c(O)c2ccccc2sc1=O ?
Result: n

###

# System: total white blood cell (WBC)
# EXPERIMENT: Total white blood cells by complete blood count on day 8, dosing day 1, 3, 5
# Type: in vivo, Swiss-Webster mice
# CONDITION INFO: mice, oral gavage, 200 mg/kg on day 1, day 3 and day 5; measured on day 8
In this section we review reported Total WBC values for a set of molecules.

| MOL SMILES | Total WBC |
| --- | --- |
| N#Cc1nc(C(=O)NCC(=O)O)c(O)c2c(Cl)cn(Cc3ccccc3F)c12 | 23.2 10^3 cells/μl |
| N#Cc1nc(C(=O)NCC(=O)O)c(O)c2c(Oc3ccc(Cl)cc3)cccc12 | 33.0 10^3 cells/μl |
| N#Cc1nc(C(=O)NCC(=O)O)c(O)c2cccc(Oc3ccccc3)c12 | 7.6 10^3 cells/μl |

Here is another molecule to look at.
Q: Let me know recorded Total WBC for N#Cc1nc(C(=O)NCC(=O)O)c(O)c2c(Oc3ccc(F)cc3)cccc12 , thanks.
Result: 14.3 10^3 cells/μl

###

In this section we review reported Neutrophils values for a set of compounds.
# System: neutrophils
# EXPERIMENT: Neutrophils by complete blood count on day 8, dosing day 1, 3, 5
# Format: in vivo, Swiss-Webster mice
# CONDITION INFO: mice, oral gavage, 100 mg/kg on day 1, day 3 and day 5; measured on day 8

| COMPOUND | Neutrophils |
| --- | --- |
| Cc1nc(C(=O)NCC(=O)O)c(O)c2cccc(Oc3ccccc3)c12 [Compound AC] | 1.0 10^3 cells/μl |
| N#Cc1nc(C(=O)NCC(=O)O)c(O)c2ccn(Cc3ccc4ccccc4c3)c12 [Compound R] | 1.3 10^3 cells/μl |
| Cc1cc(Cl)cc(C)c1Oc1ccc2c(C#N)nc(C(=O)NCC(=O)O)c(O)c2c1 [Compound J] | 0.9 10^3 cells/μl |
| N#Cc1nc(C(=O)NCC(=O)O)c(O)c2c(Cl)cn(Cc3ccc(F)cc3)c12 [Compound P] | 0.8 10^3 cells/μl |
| Cc1cccc(C)c1Oc1ccc2c(O)c(C(=O)NCC(=O)O)nc(C#N)c2c1 [Compound AI] | 0.7 10^3 cells/μl |

Q: Let me know recorded Neutrophils for N#Cc1nc(C(=O)NCC(=O)O)c(O)c2ccn(Cc3ccccc3F)c12 [Compound I] , thanks.
Result: 0.8 10^3 cells/μl

Q: Let me know recorded Neutrophils for CC(C)Oc1ccc2c(O)c(C(=O)NCC(=O)O)nc(C#N)c2c1 [Compound H] , thanks.
Result: 1.6 10^3 cells/μl

Q: Let me know recorded Neutrophils for N#Cc1nc(C(=O)NCC(=O)O)c(O)c2cc(Oc3ccc(F)cc3)ccc12 [Compound D] , thanks.
Result: 1.3 10^3 cells/μl

Q: Let me know recorded Neutrophils for O=C(O)CNC(=O)c1ncc2cc(Oc3ccc(F)c(F)c3)ccc2c1O [Compound V] , thanks.
Result: 0.8 10^3 cells/μl

Q: Let me know recorded Neutrophils for N#Cc1nc(C(=O)NCC(=O)O)c(O)c2c(Cl)cn(Cc3ccccc3)c12 [Compound F] , thanks.
Result: 0.7 10^3 cells/μl

Q: Let me know recorded Neutrophils for N#Cc1nc(C(=O)NCC(=O)O)c(O)c2c(Cl)cn(Cc3ccccc3C(F)(F)F)c12 [Compound AT] , thanks.
Result: 0.8 10^3 cells/μl

Q: Let me know recorded Neutrophils for Cc1ccc(Oc2cccc3c(C#N)nc(C(=O)NCC(=O)O)c(O)c23)cc1 [Compound BA] , thanks.
Result: 0.7 10^3 cells/μl

Q: Let me know recorded Neutrophils for C[C@H](c1ccccc1)n1c(Cl)c(Cl)c2c(O)c(C(=O)NCC(=O)O)nc(C#N)c21 [Compound L] , thanks.
Result: 4.8 10^3 cells/μl

###

# System: monocytes
# EXPERIMENT: Monocytes by complete blood count on day 8, dosing day 1, 3, 5
# Type: in vivo, Swiss-Webster mice
# CONDITION INFO: mice, oral gavage, 100 mg/kg on day 1, day 3 and day 5; measured on day 8
PROPERTY MEASURED: Monocytes

As a guide, the following entries are already answered.
| MOLECULE | SUBJECT OF TEST | Monocytes |
| --- | --- | --- |
| CC(C)Oc1ccc2c(O)c(C(=O)NCC(=O)O)nc(C#N)c2c1 [Compound H] | monocytes | 0.1 10^3 cells/μl |
| N#Cc1nc(C(=O)NCC(=O)O)c(O)c2c(Cl)cn(Cc3ccc(F)cc3)c12 [Compound P] | monocytes | 0.1 10^3 cells/μl |
| N#Cc1nc(C(=O)NCC(=O)O)c(O)c2ccn(Cc3ccc4ccccc4c3)c12 [Compound R] | monocytes | 0.3 10^3 cells/μl |

Q: // output Monocytes; input Cc1nc(C(=O)NCC(=O)O)c(O)c2cccc(Oc3ccccc3)c12 [Compound AC] ; system monocytes
Result: 0.1 10^3 cells/μl

Q: // output Monocytes; input N#Cc1nc(C(=O)NCC(=O)O)c(O)c2c(Cl)cn(Cc3ccccc3C(F)(F)F)c12 [Compound AT] ; system monocytes
Result: 0.2 10^3 cells/μl

###

# Tested on: total white blood cell (WBC)
# EXPERIMENT: Total white blood cells by complete blood count on day 8, dosing day 1, 3, 5
# Assay type: in vivo, Swiss-Webster mice
# CONDITION INFO: mice, oral gavage, 200 mg/kg on day 1, day 3 and day 5; measured on day 8
PROPERTY MEASURED: Total WBC

As a guide, the following entries are already answered.
| MOL SMILES | Total WBC |
| --- | --- |
| C[C@@H](c1ccccc1)n1c(Cl)c(Cl)c2c(O)c(C(=O)NCC(=O)O)nc(C#N)c21 | 18.2 10^3 cells/μl |
| COc1ccc(Cn2c(Cl)c(Cl)c3c(O)c(C(=O)NCC(=O)O)nc(C#N)c32)cc1 | 16.8 10^3 cells/μl |

Here is another molecule to look at.
Q: // output Total WBC; input O=C(O)CNC(=O)c1c(O)c2cccn2n(Cc2ccc(C(F)(F)F)cc2)c1=O ; system total white blood cell (WBC)
Result: 26.2 10^3 cells/μl

###

In this section we review reported change in vivo at 6 mg/kg values for a set of compounds.
# Test system: total white blood cell (WBC)
# EXPERIMENT: Total white blood cells by complete blood count on day 8, dosing day 1, 3, 5
# Type: in vivo, Swiss-Webster mice
# CONDITION INFO: Mus musculus, 192 h; mice, oral gavage, 6 mg/kg on day 1, day 3 and day 5; measured on day 8; read-out: Total WBC % Increase Over Control
Field format: number, assumed %, no unit text.

| MOL SMILES | MEASURE UNIT | change in vivo at 6 mg/kg |
| --- | --- | --- |
| Cc1nc(C(=O)NCC(=O)O)c(O)c2cccc(Oc3ccc(F)cc3)c12 | % | 109 |
| COc1cccc(Oc2ccc3c(O)c(C(=O)NCC(=O)O)nc(C#N)c3c2)c1 | % | 39 |
| O=C(O)CNC(=O)c1ncc2c(Oc3ccccc3)cccc2c1O | % | 78 |

Here is another compound to look at.
Q: // output change in vivo at 6 mg/kg; input O=C(O)CNC(=O)c1ncc2cc(Oc3ccc(F)cc3)ccc2c1O ; system total white blood cell (WBC)
Result: 6

###

# Tested on: monocytes
# EXPERIMENT: Monocytes by complete blood count on day 8, dosing day 1, 3, 5
# Assay type: in vivo, Swiss-Webster mice
# CONDITION INFO: mice, oral gavage, 100 mg/kg on day 1, day 3 and day 5; measured on day 8
PROPERTY MEASURED: Monocytes

As a guide, the following entries are already answered.
| MOLECULE | SUBJECT OF TEST | READING |
| --- | --- | --- |
| N#Cc1nc(C(=O)NCC(=O)O)c(O)c2c(Cl)cn(Cc3ccccc3)c12 [Compound F] | monocytes | 0.1 10^3 cells/μl |
| N#Cc1nc(C(=O)NCC(=O)O)c(O)c2ccn(Cc3ccccc3F)c12 [Compound I] | monocytes | 0.2 10^3 cells/μl |
| Cc1cccc(C)c1Oc1ccc2c(O)c(C(=O)NCC(=O)O)nc(C#N)c2c1 [Compound AI] | monocytes | 0.1 10^3 cells/μl |

Q: // output Monocytes; input C[C@H](c1ccccc1)n1c(Cl)c(Cl)c2c(O)c(C(=O)NCC(=O)O)nc(C#N)c21 [Compound L] ; system monocytes
Result: 0.0 10^3 cells/μl

Q: // output Monocytes; input Cc1ccc(Oc2cccc3c(C#N)nc(C(=O)NCC(=O)O)c(O)c23)cc1 [Compound BA] ; system monocytes
Result: 0.2 10^3 cells/μl
